target: BCRP (ABCG2) (Homo sapiens); test: Inhibition of BCRP-mediated pheophorbide-A efflux in human K562/BCRP cells at 0.5 uM after 1 hr by flow cytometry; type: cell-based; conditions: K562/BCRP cells, probe pheophorbide-A
Sequence (Q9UNQ0 whole entry): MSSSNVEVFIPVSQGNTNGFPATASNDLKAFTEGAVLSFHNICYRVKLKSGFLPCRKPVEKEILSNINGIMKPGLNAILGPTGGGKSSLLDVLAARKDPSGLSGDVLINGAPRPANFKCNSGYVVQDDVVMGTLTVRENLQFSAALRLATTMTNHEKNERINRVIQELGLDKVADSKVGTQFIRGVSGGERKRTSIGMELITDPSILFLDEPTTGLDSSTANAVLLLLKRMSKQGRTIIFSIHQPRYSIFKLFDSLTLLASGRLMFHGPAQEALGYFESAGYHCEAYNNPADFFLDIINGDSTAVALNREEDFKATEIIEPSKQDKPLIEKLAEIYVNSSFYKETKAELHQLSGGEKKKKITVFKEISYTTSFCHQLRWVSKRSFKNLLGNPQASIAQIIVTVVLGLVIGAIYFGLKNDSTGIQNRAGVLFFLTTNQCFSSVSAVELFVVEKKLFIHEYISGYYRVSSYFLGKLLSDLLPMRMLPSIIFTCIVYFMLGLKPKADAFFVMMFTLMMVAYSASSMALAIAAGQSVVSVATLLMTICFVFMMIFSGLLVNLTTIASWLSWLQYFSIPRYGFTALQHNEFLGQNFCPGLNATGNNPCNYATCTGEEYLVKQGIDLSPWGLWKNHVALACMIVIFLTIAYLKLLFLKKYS
# inhibition at 1 h, 0.5 µM annotations
assay.readout: inhibition at 1 h, 0.5 µM (%)

COc1cc2c(cc1OC)CN(CCc1ccc(NC(=O)c3ccccc3NC(=O)c3ccc(F)cc3[N+](=O)[O-])cc1)CC2 | 60
COc1cc2c(cc1OC)CN(CCc1ccc(NC(=O)c3ccccc3NC(=O)/C=C/c3ccccc3)cc1)CC2 | 60

* * *

assay: Cytotoxicity against human LCC6 cells expressing p-glycoprotein at 200 nM after 72 hrs by SRB assay; type: cell-based; settings: lcc6, 72 h, 0.2 µM
assay.readout: Activity

COc1cc2c(cc1OC)CN(CCc1ccc(NC(=O)c3cc(OC)c(OC)cc3NS(=O)(=O)c3ccc(C(C)(C)C)cc3)cc1)CC2 | Non-toxic
COc1cc2c(cc1OC)CN(CCc1ccc(NC(=O)c3ccccc3NC(=O)c3ccc(F)cc3[N+](=O)[O-])cc1)CC2 | Non-toxic
COc1cc2c(cc1OC)CN(CCc1ccc(NC(=O)c3ccccc3N(S(=O)(=O)c3ccc(Br)cc3)S(=O)(=O)c3ccc(Br)cc3)cc1)CC2 | Non-toxic

* * *

target: Broad substrate specificity ATP-binding cassette transporter ABCG2 (Homo sapiens); test: Induction of 5D3 antibody binding to BCRP in human K562 cells at 0.5 uM preincubated for 10 mins followed by antibody addition measured after 45 mins by flow cytometry relative to tariquidar; type: cell-based; details: k562, 0.75 h
Sequence (Q9UNQ0 whole entry): as above
assay.readout: Activity

COc1cc2c(cc1OC)CN(CCc1ccc(NC(=O)c3ccccc3NC(=O)c3ccc(F)cc3[N+](=O)[O-])cc1)CC2 | 119.1%
COc1cc2c(cc1OC)CN(CCc1ccc(NC(=O)c3ccccc3NS(=O)(=O)c3ccc(C(C)(C)C)cc3)cc1)CC2 | Not Active
COc1cc2c(cc1OC)CN(CCc1ccc(NC(=O)c3ccccc3NC(=O)c3cnc4ccccc4c3)cc1)CC2 | 90.7%
COc1cc2c(cc1OC)CN(CCc1ccc(NC(=O)c3ccccc3NS(=O)(=O)c3ccc(C)cc3)cc1)CC2 | Not Active
COc1cc2c(cc1OC)CN(CCc1ccc(NC(=O)c3ccccc3NC(=O)/C=C/c3ccccc3)cc1)CC2 | 118.6%
COc1cc2c(cc1OC)CN(CCc1ccc(NC(=O)c3ccccc3NC(=O)c3ccco3)cc1)CC2 | 149.4%

* * *

system: HCT-116; assay: Cytotoxicity against human HCT116 cells assessed as cell viability after 48 hrs by MTT assay; type: cell-based; details: HCT-116, 48 h
pIC50: −log10 of the molar value.
# pIC50 annotations
assay.readout: pIC50

COc1cc2c(cc1OC)CN(CCc1ccc(NC(=O)c3ccccc3NS(=O)(=O)c3ccc(C)cc3)cc1)CC2 | < 4.00
COc1cc2c(cc1OC)CN(CCc1ccc(NC(=O)c3ccccc3NC(=O)c3ccc(F)cc3[N+](=O)[O-])cc1)CC2 | < 4.00
COc1cc2c(cc1OC)CN(CCc1ccc(NC(=O)c3ccccc3NS(=O)(=O)c3ccc(C(F)(F)F)cc3)cc1)CC2 | 4.60
COc1cc2c(cc1OC)CN(CCc1ccc(NC(=O)c3ccccc3NS(=O)(=O)c3c(C)cc(C)cc3C)cc1)CC2 | < 4.00
COc1cc2c(cc1OC)CN(CCc1ccc(NC(=O)c3ccccc3NC(=O)OCC3c4ccccc4-c4ccccc43)cc1)CC2 | < 4.00
COc1cc2c(cc1OC)CN(CCc1ccc(NC(=O)c3ccccc3NS(=O)(=O)c3cc(Cl)ccc3Cl)cc1)CC2 | 4.60
COc1cc2c(cc1OC)CN(CCc1ccc(NC(=O)c3cc(OC)c(OC)cc3NC(=O)c3cnc4ccccc4c3)cc1)CC2 [TARIQUIDAR] | 4.90
COc1cc2c(cc1OC)CN(CCc1ccc(NC(=O)c3ccccc3NC(=O)/C=C/c3ccccc3)cc1)CC2 | < 4.00
CCCCCCCCCCCC(=O)Nc1ccccc1C(=O)Nc1ccc(CCN2CCc3cc(OC)c(OC)cc3C2)cc1 | < 4.00
COc1cc2c(cc1OC)CN(CCc1ccc(NC(=O)c3ccccc3NS(=O)(=O)c3ccc(C(C)(C)C)cc3)cc1)CC2 | < 4.00
COc1cc2c(cc1OC)CN(CCc1ccc(NC(=O)c3ccccc3NS(=O)(=O)c3ccccc3C(F)(F)F)cc1)CC2 | < 4.00
COc1cc2c(cc1OC)CN(CCc1ccc(NC(=O)c3ccccc3NS(=O)(=O)c3ccccc3F)cc1)CC2 | < 4.00
COc1cc2c(cc1OC)CN(CCc1ccc(NC(=O)c3ccccc3NS(=O)(=O)c3ccc(F)cc3)cc1)CC2 | < 4.00
COc1cc2c(cc1OC)CN(CCc1ccc(NC(=O)c3ccccc3N(S(=O)(=O)c3ccc(Br)cc3)S(=O)(=O)c3ccc(Br)cc3)cc1)CC2 | < 4.00
COc1cc2c(cc1OC)CN(CCc1ccc(NC(=O)c3ccccc3NC(=O)c3cnc4ccccc4c3)cc1)CC2 | < 4.00
COc1cc2c(cc1OC)CN(CCc1ccc(NC(=O)c3ccccc3NS(=O)(=O)c3ccc(Cl)cc3)cc1)CC2 | < 4.00
